Tested on: SERT
Test: Baboon PET imaging: brain uptake, kinetic analysis and SERT parameters
Type: in vivo
Settings: one-tissue compartment model; baboons, mean ± SD of four experiments
measurement_name: K1 Striatum (mL/g/min)
Give bare numbers, in mL/g/min.

Worked cases, answers included:
INSERT INTO measurements (compound, reported_measurement) VALUES
  ('CN([11CH3])Cc1ccccc1Sc1ccc(CF)cc1N [[^11C]AFM]', 1.48),
  ('[11CH3]Sc1ccc([C@H]2CN3CCC[C@H]3c3ccccc32)cc1 [[^11C]McN 5652]', 0.95),
  ('CN(C)Cc1ccccc1Sc1ccc(Br)cc1N [[^11C]DAPA]', 0.90),
  ('CN(C)Cc1ccccc1Sc1ccc(C#N)cc1N [[^11C]DASB]', 1.27);

Param request: K1 Striatum | system SERT | item CN(C)Cc1ccccc1Sc1ccc(I)cc1N [[^11C]ADAM]
1.15

###

System: SERT
Test: Baboon PET imaging: brain uptake, kinetic analysis and SERT parameters
Assay type: in vivo
Settings: one-tissue compartment model; baboons, mean ± SD of four experiments
Exercise: state measured K2 Hippocampus for each of the compounds provided.
One number for each entry, in min⁻¹.

Worked cases, answers included:
INSERT INTO measurements (compound, test_system, reported_measurement) VALUES
  ('[11CH3]Sc1ccc([C@H]2CN3CCC[C@H]3c3ccccc32)cc1 [[^11C]McN 5652]', 'SERT', 0.020),
  ('CN(C)Cc1ccccc1Sc1ccc(I)cc1N [[^11C]ADAM]', 'SERT', 0.021),
  ('CN(C)Cc1ccccc1Sc1ccc(Br)cc1N [[^11C]DAPA]', 'SERT', 0.015),
  ('CN(C)Cc1ccccc1Sc1ccc(C#N)cc1N [[^11C]DASB]', 'SERT', 0.036);

Query K2 Hippocampus for CN([11CH3])Cc1ccccc1Sc1ccc(CF)cc1N [[^11C]AFM]
0.023

###

Assay: Biodistribution of labeled radioligands in male Sprague-Dawley rats
Format: in vivo
Conditions: 10 min post-injection; mean ± SD, n = 3
Exercise: state measured % ID/g Frontal Ctx. for each of the compounds provided.
Answers are plain numbers, in % ID/g.

Worked cases, answers included:
INSERT INTO results (compound, measurement_units, reported_measurement) VALUES
  ('CN(C)Cc1ccccc1Sc1ccc(CCF)cc1N [[^11C]AFE]', '% ID/g', 0.61),
  ('CN(C)Cc1ccccc1Sc1ccc([18F])cc1N [[^18F]AFA]', '% ID/g', 0.81),
  ('CN([11CH3])Cc1ccccc1Sc1ccc(F)cc1N [[^11C]AFA]', '% ID/g', 0.70),
  ('CN(C)Cc1ccccc1Sc1ccc(C[18F])cc1N [[^18F]AFM]', '% ID/g', 0.82),
  ('CN(C)Cc1ccccc1Sc1ccc(CC[18F])cc1N [[^18F]AFE]', '% ID/g', 0.62);

# batch: return % ID/g Frontal Ctx. for each of the 2 compounds below
1. Cc1ccc(Sc2ccccc2CN(C)[11CH3])c(N)c1 [[^11C]MADAM]
2. CN([11CH3])Cc1ccccc1Sc1ccc(CF)cc1N [[^11C]AFM]

2.17
0.99

###

System: SERT
Assay: Baboon PET imaging: brain uptake, kinetic analysis and SERT parameters
Assay type: in vivo
Conditions: baboons, mean ± SD of four experiments
measurement_name: Regional uptake peak time Cerebellum

INSERT INTO measurements (molecule, measurement_name, reported_measurement) VALUES
  ('[11CH3]Sc1ccc([C@H]2CN3CCC[C@H]3c3ccccc32)cc1 [[^11C]McN 5652]', 'Regional uptake peak time Cerebellum', '15 ± 3 min');

# batch: return Regional uptake peak time Cerebellum for each of the 4 molecules below
1. CN(C)Cc1ccccc1Sc1ccc(C#N)cc1N [[^11C]DASB]
2. CN(C)Cc1ccccc1Sc1ccc(I)cc1N [[^11C]ADAM]
3. CN(C)Cc1ccccc1Sc1ccc(Br)cc1N [[^11C]DAPA]
4. CN([11CH3])Cc1ccccc1Sc1ccc(CF)cc1N [[^11C]AFM]

["12 ± 5 min", "14 ± 5 min", "24 ± 10 min", "23 ± 11 min"]

These data points were gathered from patent US20110097274A1.
